method: NOVARTIS: Cytotoxicity against human hepatocellular carcinoma cell line (Huh7)
Format: toxicity, cell-based, Huh-7
condition-set: Huh7 cells (hepatocellular carcinoma cell line)
# CC50 per record follows

>  <compound>
CCN(CC)c1nc(S)nc(NC(C)(C)C)n1

>  <CC50>
> 100 µM

$$$$
>  <compound>
CCN1CCN(c2cc(C)c3cc(NC(=O)C=Cc4ccccc4Cl)ccc3n2)CC1

>  <CC50>
18.4 µM

$$$$
>  <compound>
Cc1cc(C)n(N=Cc2cccc(Cl)c2)c(=O)c1C#N

>  <CC50>
> 100 µM

$$$$
>  <compound>
Cc1cc(Nc2ccc(OCc3ccccc3)cc2)nc2cc(O)ccc12

>  <CC50>
17.2 µM

$$$$
>  <compound>
Cc1ccccc1[S+]([O-])Cc1ccc(C(=O)N2CCN(c3ccccn3)CC2)o1 (stereo unspecified)

>  <CC50>
> 42 µM

$$$$
>  <compound>
COc1ccc(C(=O)C[N+]2=C(C)c3ccc(C)n3CC2)cc1

>  <CC50>
> 100 µM

$$$$

Reference for the values: ChEMBL document CHEMBL1156829
